System: COLO 205 colon
test_summary: NCI tumour cell line growth inhibition, 48 h; in the data active means GI50 below about 0.43 µM; inactive means the rest
Outcome codes: YES for active, NO for inactive

>  <compound>
O=C(Nc1cc(S(=O)(=O)c2ccc(Cl)cc2)ccc1Cl)c1cc(I)cc(I)c1O

>  <assigned_label>
NO

$$$$
>  <compound>
NC(N)=N/N=C/c1c(-c2ccc(Cl)c([N+](=O)[O-])c2)nc2n1CCS2

>  <assigned_label>
NO

$$$$
>  <compound>
Oc1[nH]c2ccccc2c1/C=c1/cc2c(c(-c3ccc(C(F)(F)F)cc3)n1)=Nc1ccccc1-2

>  <assigned_label>
NO

$$$$
>  <compound>
COc1ccc2cc(-c3c(-c4ccncc4)nc(-c4ccc(S(C)=O)cc4C)n3C)ccc2c1 (configuration not stated)

>  <assigned_label>
NO

$$$$
>  <compound>
Fc1cc(-c2nnc3n2N=C(c2ccc(Cl)cc2Cl)CS3)c(Cl)cc1Cl

>  <assigned_label>
NO

$$$$
>  <compound>
C=CC(=O)Nc1cccc(Nc2nc(Nc3ccc(OCCOC(F)F)cc3)ncc2F)c1

>  <assigned_label>
NO

$$$$
>  <compound>
O=C(O)C1C(C(=O)O)C2(Cl)C(Cl)=C(Cl)C1(Cl)C2(Cl)Cl.[Cd] (configuration not stated)

>  <assigned_label>
NO

$$$$
>  <compound>
O=C(Nc1ccccc1O)c1ccc(CNC(=O)c2ccsc2Nc2ccnc(C(F)(F)F)c2)cc1

>  <assigned_label>
NO

$$$$
>  <compound>
Cc1cc(=O)oc2cc(OCCn3c(C)nn(-c4ccc(Cl)cc4)c3=O)ccc12

>  <assigned_label>
NO

$$$$
>  <compound>
CC12OC(C(=O)C13CCC3)C1C(=O)c3ccccc3C(=O)C12 (configuration not stated)

>  <assigned_label>
NO

$$$$
>  <compound>
CN(C)C(=O)SC1=C(c2c(Cl)cccc2Cl)C(=O)c2ccccc21

>  <assigned_label>
NO

$$$$
>  <compound>
COc1ccccc1/C=C\C(=O)c1ccccc1

>  <assigned_label>
NO

$$$$
>  <compound>
Cn1cc(CO)c2ccccc21

>  <assigned_label>
NO

$$$$
>  <compound>
CC1(C)C2CCC13C(=O)C1OC3(C2)C2C(=O)c3c(O)cccc3C(=O)C12 (configuration not stated)

>  <assigned_label>
NO

$$$$
>  <compound>
CCOCNc1ccc(N2C(=O)/C(=C/c3ccc(N(CC)CC)cc3)N=C2c2ccccc2)cc1

>  <assigned_label>
NO

$$$$
>  <compound>
Cc1cc(NC(=O)NC(=O)c2ccccc2N(C)C)ccc1Oc1ncc(Br)cn1

>  <assigned_label>
YES

$$$$
>  <compound>
C=CC1=CC(C)C[C@]1(O)C(=O)OC (some centres not stated)

>  <assigned_label>
NO

$$$$

---

Test system: A549 NSCLC
test_summary: NCI tumour cell line growth inhibition, 48 h
A collection of compounds and their measured TGI
endpoint_name: TGI

>  <compound>
O=c1oc2ccc(Cl)cc2cc1-c1cn2ccsc2n1

>  <assay_result>
> 100 µM

$$$$
>  <compound>
Cc1ccccc1NC(=O)C(=O)CC(=O)c1ccc([N+](=O)[O-])cc1

>  <assay_result>
> 100 µM

$$$$
>  <compound>
CC1(C)[C@@H]2CC[C@@]1(C)[C@H](O)[C@@H]2SCc1ccccc1

>  <assay_result>
48.6 µM

$$$$
>  <compound>
C=CC(=O)Nc1cccc(Nc2nc(Nc3ccc(OCCOC(F)F)cc3)ncc2F)c1

>  <assay_result>
20.2 µM

$$$$
>  <compound>
CCCn1cnc2c(SCc3ccccc3)nc(N)nc21

>  <assay_result>
> 100 µM

$$$$
>  <compound>
CC(C)CCCC(C)[C@H]1CC[C@H]2N=C(Nc3ccccc3)CCC[C@]12C (stereo partly specified)

>  <assay_result>
14.5 µM

$$$$
